The reported measurements were obtained from patent US9511091B2.

experiment: reactivity with respect to phosphate: phosphate removal from pH 3 Na2HPO4/HCl stock solution; type: binding; details: pH 3 stock solution, La 3 times the stoichiometric amount, 10 min
measurement-name: Fraction of PO4 remaining after 10 min

molecule	val
O.O=C([O-])[O-].O=C([O-])[O-].O=C([O-])[O-].[La+3].[La+3] [Sample 10, La2(CO3)3•1H2O, reference compound]	0.790
O=C([O-])[O-].[La+3].[OH-] [Sample 3, LaCO3OH]	0.171
O=C([O-])[O-].[La+3].[La+3].[O-2].[O-2] [Sample 4, La2CO5]	0.275
O=C([O-])[O-].[La+3].[La+3].[O-2].[O-2] [Sample 7, La2O2CO3]	0.327

---

experiment: reactivity with respect to phosphate: phosphate removal from pH 3 Na2HPO4/HCl stock solution; format: binding; conditions: pH 3 stock solution, La 3 times the stoichiometric amount, 10 min
Form field: Fraction of PO4 remaining after 10 min (one value per entry).

compound	Fraction of PO4 remaining after 10 min
O=C([O-])[O-].[La+3].[OH-] [Sample 2, LaCO3OH]	0.153
O=C([O-])[O-].[La+3].[La+3].[O-2].[O-2] [Sample 8, La2CO5]	0.483
O=C([O-])[O-].[La+3].[OH-] [Sample 1, LaCO3OH]	0.130
O=C([O-])[O-].[La+3].[La+3].[O-2].[O-2] [Sample 5, La2O2CO3]	0.278
O=C([O-])[O-].[La+3].[La+3].[O-2].[O-2] [Sample 6, La2CO5]	0.308

---

test: binding efficiency test, spiked water; details: 0.50 g in 30.0 ml spike solution, approximately 1 mg/l of each element, 18 hrs, room temperature
Response field label: string, one of TRUE (% Analyte Removed Sb strictly below 90%) or FALSE.

molecule	assigned-category
O=C([O-])[O-].[La+3].[OH-] [A, lanthanum carbonate hydroxide]	TRUE
O.O.O.O.O=C([O-])[O-].O=C([O-])[O-].O=C([O-])[O-].[La+3].[La+3] [La2(CO3)3•4H2O, reference compound]	TRUE
[O]=[Ti]=[O]	FALSE
O=C([O-])[O-].O=C([O-])[O-].[Ti+4] [Ti(CO3)2, Ti carbonate]	FALSE
[O]=[La][Cl] [LaOCl, lanthanum oxychloride]	TRUE
O=C([O-])[O-].[La+3].[La+3].[O-2].[O-2] [Compound B, anhydrous lanthanum oxycarbonate]	FALSE

---

Form field: BET surface area (one value per entry).
Test: specific surface area by the BET method
Assay type: physicochemical
Experimental: For each sample, the surface area measured by the BET method and the fraction of phosphate remaining after 10 min of reaction have been tabulated. […] The rate constant k1 is defined by the following equation: d[PO4]/dt=−k1[PO4] An aqueous HCl solution having a volume of 334.75 ml and containing LaCl3 (lanthanum chloride) at a concentration of 29.2 wt % as La2O3 was added to a 4 liter beaker and heated to 80° C. with stirring. […] The surface area of the product was determined by the BET method. […]
measurement-name: BET surface area (m^2/g)

compound	measurement-name	unit-of-measure	val
O=C([O-])[O-].[La+3].[La+3].[O-2].[O-2] [Sample 6, La2CO5]	BET surface area	m^2/g	18.8
O=C([O-])[O-].[La+3].[La+3].[O-2].[O-2] [Sample 7, La2O2CO3]	BET surface area	m^2/g	16.5
O=C([O-])[O-].[La+3].[OH-] [Sample 2, LaCO3OH]	BET surface area	m^2/g	35.9
